This collection of values is drawn from ChEMBL document CHEMBL1201862.

System: U-251
EXPERIMENT: NCI tumour cell line growth inhibition, 48 h
Calls of active or inactive are those of the source. No stated cut-off is given here; in the data, active = GI50 up to about 1.1 µM and inactive = higher.

COMPOUND	ASSAYED_SYSTEM	GI50
Brc1cc2nn(-c3ccccc3)nc2c2nonc12	U-251	> 100 µM (inactive)
CCCCCCCCCC(=O)N[C@H]1CCc2cc(OC)c(OC)c(OC)c2-c2ccc(SC)c(=O)cc21	U-251	0.0274 µM (active)
CC(C)(C)c1cc2c(c(C(C)(C)C)c1O)CC(=O)O2	U-251	41.9 µM (inactive)
CC(C)=CC1C(C(=O)Oc2ccccc2C(C)C)C1(C)C (configuration not stated)	U-251	16.7 µM (inactive)
c1ccc(CN2CCc3[nH]c4ccccc4c3C2)cc1	U-251	21.4 µM (inactive)
O=C(/C=C(\C(=O)c1cccs1)c1cccs1)c1ccc(C(=O)/C=C(\C(=O)c2cccs2)c2cccs2)cc1	U-251	> 100 µM (inactive)
N#CC(Cl)CS(=O)(=O)c1ccccc1 (configuration not stated)	U-251	19.3 µM (inactive)

----------
Test system: SK-MEL-28
EXPERIMENT: NCI tumour cell line growth inhibition, 48 h
Activity calls are given as the source filed them. Rule as the data show it: active = GI50 up to about 1.1 µM and inactive = higher.
ASSAY_ENDPOINT: GI50

MOLECULE	RESULT
COc1nc(OC)nc(Sc2ccc(Sc3ccc(Sc4nc(OC)nc(OC)n4)cc3)cc2)n1	> 100 µM (inactive)
Cc1ccc2c(c1)C(O)(c1ccccc1)CCS2 (stereo not drawn)	37.6 µM (inactive)
O=C(Cc1ccccc1)NN1C(=O)C(Cl)C1c1cccc(O)c1 (stereo not drawn)	18.4 µM (inactive)

----------
System: NCI-H23
EXPERIMENT: NCI tumour cell line growth inhibition, 48 h
Active and inactive are the calls of the source. Rule as the data show it: active = GI50 up to about 1.1 µM and inactive = higher.
Listing: GI50 of selected compounds

COMPOUND	GI50
CC(C)C(=O)C(C)(C)CCc1ccccn1	> 100 µM (inactive)
CCC[C@H](C)C[C@H](C)C[C@H](C)/C=C(\C)[C@@H](O)[C@@H](C)C(=O)CC	18.9 µM (inactive)
NCCc1ccc(S(=O)(=O)O)cc1[N+](=O)[O-]	> 100 µM (inactive)
Nc1nc(N)c2c(-c3ccccc3)ccnc2n1	> 100 µM (inactive)
COc1ccc(C(C)NNC(=O)c2ccncc2)cc1OC (centres undefined)	> 100 µM (inactive)
CCCc1cn2c(/C=N/NC(=N)N)c(-c3ccc(Cl)c([N+](=O)[O-])c3)nc2s1	1.74 µM (inactive)
C[Si]12OCCCN(CCO1)CCO2	> 100 µM (inactive)
O=[N+]([O-])C1CC/C(=N/O)c2nonc21 (centres undefined)	> 10 µM (inactive)
NC(=O)Oc1ccccc1	> 100 µM (inactive)
CCC(=N\NC(N)=S)/C(C)=N/O	> 100 µM (inactive)
CC(NCc1c(O)ccc2c(-c3ccccc3)cc(=O)oc12)C(=O)O (centres undefined)	> 100 µM (inactive)
Cc1cc(O)nc(NN2C(Cl)C(=O)C2c2ccc(O)cc2)n1 (centres undefined)	9.62 µM (inactive)
O=C(O)CCSC(=O)Nc1ccc([N+](=O)[O-])cc1	> 100 µM (inactive)
O=[N+]([O-])C(C(Cl)=C(Cl)Cl)=C(N1CCCCC1)N1CCCCC1	> 100 µM (inactive)

----------
Listing: GI50 of selected compounds
Test system: ACHN
EXPERIMENT: NCI tumour cell line growth inhibition, 48 h
The source made the active and inactive calls. No stated cut-off is given here; in the data, active = GI50 up to about 1.1 µM and inactive = higher.

COMPOUND	GI50
Cn1c(=O)cc(NCCc2ccccc2)[nH]c1=O	39.3 µM (inactive)
O=[N+]([O-])c1ccc(-c2ccc(C3=Nn4c(CNc5ccccc5Cl)nnc4SC3)o2)cc1	32.6 µM (inactive)
CC1(OCc2ccccc2)C(=O)N2C1N(C(=O)OCc1ccccc1)CC2(C)C (configuration not stated)	61.1 µM (inactive)
CC1=C(C2=C(C)C(=O)C(=O)c3cc(C)ccc32)c2ccc(C)cc2C(=O)C1=O	0.189 µM (active)
C=CCCCC(C#N)(c1ccccc1)N1CCCC1 (configuration not stated)	> 100 µM (inactive)
OCCNCO	> 100 µM (inactive)
c1ccc(/C(=N/Nc2cnccn2)c2ncccn2)cc1	40.7 µM (inactive)
